Measured values drawn from ChEMBL document CHEMBL4689842 for this set.

Test system: U2OS
Assay: Multiplex assay against U2OS
Format: toxicity, cell-based
Settings: human, 12 h, 1 µM, compound concentration 1 uM, replicate 1
Entries annotated with measured Population Fragmented Nuclei (%)
Give the value, in units of %, as a plain number.

These solved cases illustrate the format of a correct answer.
- compound: "Cl.Oc1ccc2c3c1O[C@H]1c4[nH]c5c(c4C[C@@]4(O)[C@@H](C2)N(CC2CC2)CC[C@]314)C[C@@]1(O)[C@H]2Cc3ccc(O)c4c3[C@@]1(CCN2CC1CC1)[C@H]5O4"
  Population Fragmented Nuclei (%): 9
- compound: "Cc1ccc2nc(NCCN)c3ncc(C)n3c2c1.O=C(O)C(F)(F)F.O=C(O)C(F)(F)F"
  Population Fragmented Nuclei (%): 6
- compound: "Cl.O=C(c1ccc(Nc2nccc(-c3cc4ccccc4s3)n2)cc1)N1CCC(N2CCCC2)CC1"
  Population Fragmented Nuclei (%): 8
- compound: "COc1cc2ncnc(Nc3ccc(F)c(Cl)c3)c2cc1NC(=O)/C=C/CN1CCCCC1 [DACOMITINIB ANHYDROUS]"
  Population Fragmented Nuclei (%): 6

Then there is this compound:
Ask: Which Population Fragmented Nuclei (%) is reported for this compound? O=C(Nc1ccc(Cl)cc1)Nc1cccc(-c2cccc(N3CCCC3)n2)c1
Result: 11

----------
Tested on: HEK-293T
Assay: Multiplex assay against HEK293T
Format: toxicity, cell-based
Conditions: human, 24 h, 1 µM, compound concentration 1 uM, replicate 1
endpoint: Total Cell Count
Would you mind answering with just the numeric figure?

- compound: "S=C(NCCCc1c[nH]cn1)NCCCN(Cc1ccc(Cl)c(Cl)c1)c1ccc(Br)cn1"
  Total Cell Count: 308

Ask: Which Total Cell Count is reported for this compound? CN1C2CCC1CC(OC(c1ccc(F)cc1)c1ccc(F)cc1)C2.Cl (stereo unspecified)
Result: 295

Ask: Which Total Cell Count is reported for this compound? Cc1cc(C)c(S(=O)(=O)N(Cc2ccc(-c3cccc(S(C)(=O)=O)c3)cc2)Cc2ccc(C(F)(F)F)o2)c(C)c1
Result: 304

Ask: Which Total Cell Count is reported for this compound? C=CCn1c(=O)c2cnc(Nc3ccc(N4CCN(C)CC4)cc3)nc2n1-c1cccc(C(C)(C)O)n1
Result: 590

Ask: Which Total Cell Count is reported for this compound? CCCn1c(=O)c2[nH]c(-c3cnn(Cc4cccc(C(F)(F)F)c4)c3)nc2n(CC)c1=O
Result: 303

Ask: Which Total Cell Count is reported for this compound? CN1CCC(=C2c3ccccc3CC(=O)c3sccc32)CC1.O=C(O)/C=C/C(=O)O [KETOTIFEN FUMARATE]
Result: 307

----------
Entries annotated with measured Growth Rate
Test system: HEK-293T
Test: Incucyte cell viability with HEK293T; further: filed as whole numbers so only -1 and 0 and 1 occur
Format: toxicity, cell-based
Conditions: human, 0 h, 10 µM, compound concentration 10 uM, replicate number 1, timepoint 0 hours
Would you mind answering with just the numeric figure?

These solved cases illustrate the format of a correct answer.
- compound: "Cc1nnc2c3ccccc3c(N[C@@H](C)[C@H](c3ccccc3)N(C)C)nn12"
  measurementTarget: "HEK-293T"
  Growth Rate: 0
- compound: "Cl.O=c1c2cccn2c2ccccc2n1CCCN1CCC(c2ccc(Cl)cc2)CC1"
  measurementTarget: "HEK-293T"
  Growth Rate: 0
- compound: "CC(C)(C(=O)O)c1ccc(C(O)CCCN2CCC(C(O)(c3ccccc3)c3ccccc3)CC2)cc1.Cl (stereo not drawn) [FEXOFENADINE HYDROCHLORIDE]"
  measurementTarget: "HEK-293T"
  Growth Rate: 1
- compound: "Cn1nc(C(F)(F)F)cc1-c1cnc(N2CCc3cc(S(=O)(=O)Nc4c(F)cc(Cl)cc4F)cc(N4CCCC4=O)c32)nc1 [TP-020]"
  measurementTarget: "HEK-293T"
  Growth Rate: 0
- compound: "O=C(Nc1ccc(-c2ccnc(Nc3ccc(N4CCOCC4)cc3)n2)cc1)[C@@H]1CCCN1"
  measurementTarget: "HEK-293T"
  Growth Rate: 1

Ask: Which Growth Rate is reported for this compound? CC(C)OC(=O)C1=CN(C(=O)c2ccc(F)c(F)c2)CC(C)(C)c2c1[nH]c1ccccc21 [TUROFEXORATE ISOPROPYL]
Result: 0

Ask: Which Growth Rate is reported for this compound? C[C@]12CCC(=O)C=C1CC[C@@H]1[C@@H]2[C@@H](O)C[C@]2(C=O)[C@@H](C(=O)CO)CC[C@@H]12 [ALDOSTERONE]
Result: 0

----------
Test system: HEK-293T
Test: Multiplex assay against HEK293T;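 on Population Tubulin-Different-Phenotype (%): share of the cells with healthy nuclei that show this phenotype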
Format: toxicity, cell-based
Conditions: human, 24 h, 10 µM, compound concentration 10 uM, replicate 1
Assign labels as follows, please: criterion met for Population Tubulin-Different-Phenotype (%) below 10%; criterion not met for Population Tubulin-Different-Phenotype (%) equal to or exceeding 10%.

- entrySmiles: "Cn1nc(C(F)(F)F)cc1-c1cnc(N2CCc3cc(S(=O)(=O)Nc4c(F)cc(Cl)cc4F)cc(N4CCCC4=O)c32)nc1"
  classLabel: "criterion met"
- entrySmiles: "C=CCn1c(=O)c2cnc(Nc3ccc(N4CCN(C)CC4)cc3)nc2n1-c1cccc(C(C)(C)O)n1"
  classLabel: "criterion not met"
- entrySmiles: "Cc1ccc2nc(NCCN)c3ncc(C)n3c2c1.O=C(O)C(F)(F)F.O=C(O)C(F)(F)F"
  classLabel: "criterion not met"
- entrySmiles: "O=C1N/C(=N/c2ccccc2F)S/C1=C\\c1ccc(C(=O)O)cc1"
  classLabel: "criterion not met"
- entrySmiles: "CCc1cccc(CC)c1NC(=O)c1nn(C)c2c1CCc1cnc(Nc3ccc(C(=O)NC4CCN(C)CC4)cc3OC(F)(F)F)nc1-2"
  classLabel: "criterion not met"

Ask: Is it true that Population Tubulin-Different-Phenotype (%) reported for CCCS(=O)(=O)Nc1ccc(F)c(C(=O)c2c[nH]c3ncc(Cl)cc23)c1F is less than 10%?
Result: criterion met

Ask: Is it true that Population Tubulin-Different-Phenotype (%) reported for CCOc1cc2ncc(C#N)c(Nc3ccc(OCc4ccccn4)c(Cl)c3)c2cc1NC(=O)/C=C/CN(C)C is less than 10%?
Result: criterion not met

Ask: Is it true that Population Tubulin-Different-Phenotype (%) reported for CCOc1cc(C(=O)N2CCC(N3CCN(C)CC3)CC2)ccc1Nc1ncc2c(n1)N(C1CCCC1)c1ccccc1C(=O)N2C is less than 10%?
Result: criterion not met

Ask: Is it true that Population Tubulin-Different-Phenotype (%) reported for NC(=O)c1cccc(-c2cc(Nc3ccc(OC(F)(F)F)cc3)ncn2)c1 is less than 10%?
Result: criterion met

Ask: Is it true that Population Tubulin-Different-Phenotype (%) reported for CCCn1c(=O)c2[nH]c(-c3cnn(Cc4cccc(C(F)(F)F)c4)c3)nc2n(CC)c1=O is less than 10%?
Result: criterion not met

----------
Tested on: HEK-293T
Assay: Multiplex assay against HEK293T
Assay type: toxicity, cell-based
Conditions: human, 24 h, 1 µM, compound concentration 1 uM, replicate 1
Assign labels as follows, please: Satisfied for Population Fragmented Nuclei (%) below 20%; Not satisfied for Population Fragmented Nuclei (%) equal to or exceeding 20%.

- compound: "O=C1NC(=O)C(c2cnc3ccccn23)=C1c1cn2c3c(cc(F)cc13)CN(C(=O)N1CCCCC1)CC2"
  measurementTarget: "HEK-293T"
  classLabel: "Satisfied"
- compound: "CN[C@@H]1C[C@H]2O[C@@](C)([C@@H]1OC)n1c3ccccc3c3c4c(c5c6ccccc6n2c5c31)C(=O)NC4"
  measurementTarget: "HEK-293T"
  classLabel: "Not satisfied"
- compound: "CCCn1c(=O)c2[nH]c(-c3cnn(Cc4cccc(C(F)(F)F)c4)c3)nc2n(CC)c1=O"
  measurementTarget: "HEK-293T"
  classLabel: "Satisfied"
- compound: "COc1cc2ncnc(Nc3ccc(F)c(Cl)c3)c2cc1NC(=O)/C=C/CN1CCCCC1 [DACOMITINIB ANHYDROUS]"
  measurementTarget: "HEK-293T"
  classLabel: "Not satisfied"
- compound: "CNC(=O)c1ccc(Nc2nc(OC3CCCC3)c3c(-c4ccc5nc(C)oc5c4)c[nH]c3n2)c(OC)c1"
  measurementTarget: "HEK-293T"
  classLabel: "Not satisfied"

--- query ---
Ask: Is it true that Population Fragmented Nuclei (%) reported for CN1C2CCC1CC(OC(c1ccc(F)cc1)c1ccc(F)cc1)C2.Cl (stereo unspecified) is less than 20%?
Result: Satisfied

----------
Test system: U2OS
Assay: Multiplex assay against U2OS
Format: toxicity, cell-based
Conditions: human, 48 h, 10 µM, compound concentration 10 uM, replicate 2
endpoint: Population Pyknosed Nuclei (%)
Show the value, then the unit it is measured in.

These solved cases illustrate the format of a correct answer.
- compound: "O=C(Cc1ccc(-c2ccc(OCCN3CCOCC3)cc2)cn1)NCc1ccccc1 [TIRBANIBULIN]"
  Population Pyknosed Nuclei (%): "30%"
- compound: "CN(C)C(=O)C(CCN1CCC(O)(c2ccc(Cl)cc2)CC1)(c1ccccc1)c1ccccc1.Cl [LOPERAMIDE HYDROCHLORIDE]"
  Population Pyknosed Nuclei (%): "48%"
- compound: "CCc1cccc(CC)c1NC(=O)c1nn(C)c2c1CCc1cnc(Nc3ccc(C(=O)NC4CCN(C)CC4)cc3OC(F)(F)F)nc1-2"
  Population Pyknosed Nuclei (%): "37%"
- compound: "CN1CCN(C(=O)C(C)(C)c2ccc(C(=O)Nc3cn4cc(-c5ccncc5)ccc4n3)cc2)CC1 [T3-CLK]"
  Population Pyknosed Nuclei (%): "35%"
- compound: "CCOC(=O)c1c(C)[nH]c2ccc3c(c12)CN1CCc2cc(OC)ccc2C1O3 (centres undefined)"
  Population Pyknosed Nuclei (%): "39%"
- compound: "CN1CCC(=C2c3ccccc3CC(=O)c3sccc32)CC1.O=C(O)/C=C/C(=O)O [KETOTIFEN FUMARATE]"
  Population Pyknosed Nuclei (%): "29%"
- compound: "Cl.Oc1ccc2c3c1O[C@H]1c4[nH]c5c(c4C[C@@]4(O)[C@@H](C2)N(CC2CC2)CC[C@]314)C[C@@]1(O)[C@H]2Cc3ccc(O)c4c3[C@@]1(CCN2CC1CC1)[C@H]5O4"
  Population Pyknosed Nuclei (%): "15%"
- compound: "Cl.O=C(c1ccc(Nc2nccc(-c3cc4ccccc4s3)n2)cc1)N1CCC(N2CCCC2)CC1"
  Population Pyknosed Nuclei (%): "21%"

Then there is this compound:
Ask: Which Population Pyknosed Nuclei (%) is reported for this compound? O=C1NC(=O)C(c2cnc3ccccn23)=C1c1cn2c3c(cc(F)cc13)CN(C(=O)N1CCCCC1)CC2 [LY-2090314]
Result: 15%
